Where do these numbers come from? They come from PubChem BioAssay AID1963834.

The following compounds are shown together with reported pIC50 values.
# Tested on: 873145-292-R-J1-PDC complex spheroid viability
# Assay notes: Anticancer human tumor 873145-292-R-J1-PDC patient-derived renal clear cell carcinoma cell line growth inhibition [POLQ]
# Condition description: curve of first compound; second compound 1 µM
Scale note: pIC50 = -log10(concentration in M).

compound="COc1cccc2c1C(=O)c1c(O)c3c(c(O)c1C2=O)CC(O)(C(=O)CO)CC3OC1CC(N)C(O)C(C)O1 (stereo not given) + COC1C(OC(N)=O)C(O)C(Oc2ccc3c(O)c(NC(=O)c4ccc(O)c(CC=C(C)C)c4)c(=O)oc3c2C)OC1(C)C" observed=5.85

pIC50 in this record for CC1COCCN1c1cc(-c2ccnn2C)c2ccnc(-c3ccn[nH]3)c2n1 (stereo not given) + Nc1ccc(C#CCN(C(=O)Cc2ncc(C(F)(F)F)cc2C(F)(F)F)c2ccc(F)cc2)nn1 : 5.19

* * *

The following molecules are shown together with reported viability, T/C values.
# System: 873145-292-R-J1-PDC complex spheroid viability
# Assay notes: Anticancer human tumor 873145-292-R-J1-PDC cell line growth inhibition [POLQ];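 further: spheroids exposed to compounds for 7 days before viability readout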;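 on viability, T/C: luminescence signal used as surrogate for viable cell content; 100% = DMSO vehicle control viability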
# Condition description: second compound 0.316 µM; first compound 1 µM; stronger effect = lower value

Example entries and their recorded answers appear below.
molecule="COc1cccc2c1C(=O)c1c(O)c3c(c(O)c1C2=O)CC(O)(C(=O)CO)CC3OC1CC(N)C(O)C(C)O1 (stereo unspecified) + Nc1ccc(C#CCN(C(=O)Cc2ncc(C(F)(F)F)cc2C(F)(F)F)c2ccc(F)cc2)nn1" observed=83%
molecule="COc1cccc(OCCCN)c1-c1cc(Nc2cnc(C#N)cn2)n[nH]1 + Cc1cccc(N(C)C(=O)C2C(O)CCN2c2nc(C)cc(C(F)(F)F)c2C#N)c1" observed=83%
molecule="O=c1[nH]cc(F)c(=O)[nH]1 + COC1C(OC(N)=O)C(O)C(Oc2ccc3c(O)c(NC(=O)c4ccc(O)c(CC=C(C)C)c4)c(=O)oc3c2C)OC1(C)C" observed=87.4%
molecule="C=CCn1c(=O)c2cnc(Nc3ccc(N4CCN(C)CC4)cc3)nc2n1-c1cccc(C(C)(C)O)n1 + COC1C(OC(N)=O)C(O)C(Oc2ccc3c(O)c(NC(=O)c4ccc(O)c(CC=C(C)C)c4)c(=O)oc3c2C)OC1(C)C" observed=74.5%
molecule="CCc1cc2c(N3CCc4c(cc(Cn5ccnc5)cc4-c4cn(C)nc4C(F)(F)F)C3=O)ccnc2c(OC)n1 + Nc1ccc(C#CCN(C(=O)Cc2ncc(C(F)(F)F)cc2C(F)(F)F)c2ccc(F)cc2)nn1" observed=82.5%
molecule="O=c1[nH]cc(F)c(=O)[nH]1 + Nc1ccc(C#CCN(C(=O)Cc2ncc(C(F)(F)F)cc2C(F)(F)F)c2ccc(F)cc2)nn1" observed=98%

viability, T/C in this record for O=c1[nH]cc(F)c(=O)[nH]1 + Cc1cccc(N(C)C(=O)C2C(O)CCN2c2nc(C)cc(C(F)(F)F)c2C#N)c1 : 92.4%

viability, T/C in this record for CC1COCCN1c1cc(-c2ccnn2C)c2ccnc(-c3ccn[nH]3)c2n1 (stereo unspecified) + COC1C(OC(N)=O)C(O)C(Oc2ccc3c(O)c(NC(=O)c4ccc(O)c(CC=C(C)C)c4)c(=O)oc3c2C)OC1(C)C : 51.6%

viability, T/C in this record for COc1cc(C2c3cc4c(cc3C(OC3OC5COC(C)OC5C(O)C3O)C3COC(=O)C23)OCO4)cc(OC)c1O (stereo unspecified) + Nc1ccc(C#CCN(C(=O)Cc2ncc(C(F)(F)F)cc2C(F)(F)F)c2ccc(F)cc2)nn1 : 98.8%

* * *

The following compounds are shown together with reported IC50 values.
# Test system: 873145-292-R-J1-PDC complex spheroid viability
# Assay notes: Anticancer human tumor 873145-292-R-J1-PDC cell line growth inhibition [POLQ];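 further: spheroids exposed to compounds for 7 days before viability readout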
# Condition description: curve of first compound; second compound 1 µM
Form entry: value (nM) — number only.

Example entries and their recorded answers appear below.
compound="CC1COCCN1c1cc(C2(O)CC3CCC(C2)O3)c2cnn(-c3ccn[nH]3)c2n1 (stereo not given) + Cc1cccc(N(C)C(=O)C2C(O)CCN2c2nc(C)cc(C(F)(F)F)c2C#N)c1" observed=511
compound="COc1cccc2c1C(=O)c1c(O)c3c(c(O)c1C2=O)CC(O)(C(=O)CO)CC3OC1CC(N)C(O)C(C)O1 (stereo not given) + Nc1ccc(C#CCN(C(=O)Cc2ncc(C(F)(F)F)cc2C(F)(F)F)c2ccc(F)cc2)nn1" observed=1660

IC50 in this record for CCc1c2c(nc3ccc(O)cc13)-c1cc3c(c(=O)n1C2)COC(=O)[C@]3(O)CC + COC1C(OC(N)=O)C(O)C(Oc2ccc3c(O)c(NC(=O)c4ccc(O)c(CC=C(C)C)c4)c(=O)oc3c2C)OC1(C)C : 50.4

IC50 in this record for CC1COCCN1c1cc(-c2ccnn2C)c2ccnc(-c3ccn[nH]3)c2n1 (stereo not given) + Cc1cccc(N(C)C(=O)C2C(O)CCN2c2nc(C)cc(C(F)(F)F)c2C#N)c1 : 1530

* * *

# Tested on: 873145-292-R-J1-PDC complex spheroid viability
# Assay notes: Anticancer human tumor 873145-292-R-J1-PDC cell line growth inhibition [POLQ];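 further: spheroids exposed to compounds for 7 days before viability readout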
# Condition description: curve of first compound; second compound 10 µM
Assay readout: IC50

molecule="CNCc1ccc(-c2[nH]c3cc(F)cc4c3c2CCNC4=O)cc1 + COC1C(OC(N)=O)C(O)C(Oc2ccc3c(O)c(NC(=O)c4ccc(O)c(CC=C(C)C)c4)c(=O)oc3c2C)OC1(C)C" observed="> 10 µM"
molecule="CCCS(=O)(=O)Nc1ccc(F)c(C(=O)c2c[nH]c3ncc(-c4ccc(Cl)cc4)cc23)c1F + Cc1cccc(N(C)C(=O)C2C(O)CCN2c2nc(C)cc(C(F)(F)F)c2C#N)c1" observed="> 10 µM"

IC50 in this record for COc1cc(C2c3cc4c(cc3C(OC3OC5COC(C)OC5C(O)C3O)C3COC(=O)C23)OCO4)cc(OC)c1O (stereo not given) + COC1C(OC(N)=O)C(O)C(Oc2ccc3c(O)c(NC(=O)c4ccc(O)c(CC=C(C)C)c4)c(=O)oc3c2C)OC1(C)C : > 10 µM

IC50 in this record for CC1COCCN1c1cc(-c2ccnn2C)c2ccnc(-c3ccn[nH]3)c2n1 (stereo not given) + Cc1cccc(N(C)C(=O)C2C(O)CCN2c2nc(C)cc(C(F)(F)F)c2C#N)c1 : 0.895 µM

IC50 in this record for COc1cc(C2c3cc4c(cc3C(OC3OC5COC(C)OC5C(O)C3O)C3COC(=O)C23)OCO4)cc(OC)c1O (stereo not given) + Nc1ccc(C#CCN(C(=O)Cc2ncc(C(F)(F)F)cc2C(F)(F)F)c2ccc(F)cc2)nn1 : > 10 µM

* * *

The following compounds are shown together with reported viability, T/C values.
# Tested on: 873145-292-R-J1-PDC complex spheroid viability
# Assay notes: Anticancer human tumor 873145-292-R-J1-PDC cell line growth inhibition [POLQ];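 further: spheroids exposed to compounds for 7 days before viability readout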;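 on viability, T/C: luminescence signal used as surrogate for viable cell content; 100% = DMSO vehicle control viability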
# Condition description: second compound 1 µM; first compound 0.00316 µM; stronger effect = lower value
# Method: Multicellular complex tumor spheroid response to Polymerase (POL) inhibitors (novobiocin, ART-558, RP6685) in combination with a variety of drugs and investigational agents in selected tumor cell lines The POL inhibitors (novobiocin, ART-558, and RP6685) were evaluated both individually and in combination with standard of care and investigational anticancer small molecules within a complex spheroid model of solid tumors. . […]
Form entry: value (%) — number only.

Example entries and their recorded answers appear below.
compound="Cn1ncnc1[C@H]1c2n[nH]c(=O)c3cc(F)cc(c23)N[C@@H]1c1ccc(F)cc1 + COC1C(OC(N)=O)C(O)C(Oc2ccc3c(O)c(NC(=O)c4ccc(O)c(CC=C(C)C)c4)c(=O)oc3c2C)OC1(C)C" units_of_measure=% observed=95.6
compound="C=CCn1c(=O)c2cnc(Nc3ccc(N4CCN(C)CC4)cc3)nc2n1-c1cccc(C(C)(C)O)n1 + Cc1cccc(N(C)C(=O)C2C(O)CCN2c2nc(C)cc(C(F)(F)F)c2C#N)c1" units_of_measure=% observed=89.8
compound="CC[C@@]1(O)C(=O)OCc2c1cc1n(c2=O)Cc2cc3c(CN(C)C)c(O)ccc3nc2-1 + COC1C(OC(N)=O)C(O)C(Oc2ccc3c(O)c(NC(=O)c4ccc(O)c(CC=C(C)C)c4)c(=O)oc3c2C)OC1(C)C" units_of_measure=% observed=92.8

viability, T/C in this record for CCc1c2c(nc3ccc(O)cc13)-c1cc3c(c(=O)n1C2)COC(=O)[C@]3(O)CC + COC1C(OC(N)=O)C(O)C(Oc2ccc3c(O)c(NC(=O)c4ccc(O)c(CC=C(C)C)c4)c(=O)oc3c2C)OC1(C)C : 104

* * *

# Tested on: 873145-292-R-J1-PDC complex spheroid viability
# Assay notes: Anticancer human tumor 873145-292-R-J1-PDC cell line growth inhibition [POLQ];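 further: spheroids exposed to compounds for 7 days before viability readout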;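 on viability, T/C: luminescence signal used as surrogate for viable cell content; 100% = DMSO vehicle control viability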
# Condition description: second compound 0.0316 µM; first compound 0.001 µM; stronger effect = lower value
# Procedure: Multicellular complex tumor spheroid response to Polymerase (POL) inhibitors (novobiocin, ART-558, RP6685) in combination with a variety of drugs and investigational agents in selected tumor cell lines The POL inhibitors (novobiocin, ART-558, and RP6685) were evaluated both individually and in combination with standard of care and investigational anticancer small molecules within a complex spheroid model of solid tumors. . […]
Assay readout: viability, T/C (%)
Form entry: value (%) — number only.

viability, T/C in this record for Cn1ncnc1[C@H]1c2n[nH]c(=O)c3cc(F)cc(c23)N[C@@H]1c1ccc(F)cc1 + Nc1ccc(C#CCN(C(=O)Cc2ncc(C(F)(F)F)cc2C(F)(F)F)c2ccc(F)cc2)nn1 : 103

viability, T/C in this record for CC[C@@]1(O)C(=O)OCc2c1cc1n(c2=O)Cc2cc3c(CN(C)C)c(O)ccc3nc2-1 + COC1C(OC(N)=O)C(O)C(Oc2ccc3c(O)c(NC(=O)c4ccc(O)c(CC=C(C)C)c4)c(=O)oc3c2C)OC1(C)C : 98.3

viability, T/C in this record for CC[C@@]1(O)C(=O)OCc2c1cc1n(c2=O)Cc2cc3c(CN(C)C)c(O)ccc3nc2-1 + Nc1ccc(C#CCN(C(=O)Cc2ncc(C(F)(F)F)cc2C(F)(F)F)c2ccc(F)cc2)nn1 : 116
